# target-of-assay: Aurora kinase A (Homo sapiens, UniProt O14965)
# Sequence (O14965 whole entry): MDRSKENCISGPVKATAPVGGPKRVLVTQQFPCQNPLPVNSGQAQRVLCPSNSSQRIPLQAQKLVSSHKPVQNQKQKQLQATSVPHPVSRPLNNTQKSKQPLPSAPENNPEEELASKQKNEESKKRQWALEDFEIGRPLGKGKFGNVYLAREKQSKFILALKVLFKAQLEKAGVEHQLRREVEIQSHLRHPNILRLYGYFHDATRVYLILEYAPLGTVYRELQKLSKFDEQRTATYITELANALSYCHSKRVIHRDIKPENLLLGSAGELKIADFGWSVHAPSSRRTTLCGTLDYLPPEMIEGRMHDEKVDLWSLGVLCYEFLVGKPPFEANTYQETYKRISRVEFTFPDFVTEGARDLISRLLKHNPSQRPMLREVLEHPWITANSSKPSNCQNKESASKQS
# test-details: Inhibition of AURKA (unknown origin) transfected in human HCT116 cells after 4 hrs by near infrared imager analysis
pEC50: −log10 of the molar value.
assay-metric: pEC50

In [3]: df
Out[3]:
                                   compound  readout_value
0  O=C(N[C@@H](c1ccccn1)C1CC1)c1ccc2[nH]nc(-c3ccc(N4[C@H]5CC[C@H]4CC(O)C5)cc3)c2c1 (stereo in doubt; 75)         < 5.22

----------
# test-details: Half life in Sprague-Dawley rat at 1 mg/kg, iv by LC-MS/MS analysis
# Format: ADME, organism-based
# Design: dose 1 mg/kg, route intravenous
# cond: in vivo
half-life less than 50 min is Condition met; half-life greater than or equal to 50 min is Condition not met.

In [3]: df
Out[3]:
                                   compound     classification
0  O=C(N[C@@H](c1ccccn1)C1CC1)c1ccc2[nH]nc(-c3ccc(N4C5CCC4COC5)cc3)c2c1      Condition met
1  O=C(N[C@H](c1ccccn1)C1CC1)c1ccc2[nH]nc(-c3ccc(N4[C@H]5CC[C@H]4CC(O)C5)cc3)c2c1 (stereo in doubt; 86)  Condition not met
2  O=C(N[C@H](c1ncccn1)C1CCCC1)c1ccc2[nH]nc(-c3ccc(N4[C@H]5CC[C@H]4CC(O)C5)cc3)c2c1 (stereo partly specified)      Condition met
3  O=C(N[C@H](CC1CC1)c1ccccn1)c1ccc2[nH]nc(-c3ccc(N4[C@H]5CC[C@H]4CC(O)C5)cc3)c2c1 (stereo partly specified)      Condition met
4  O=C(N[C@H](c1ccccn1)C1CCCC1)c1ccc2[nH]nc(-c3ccc(N4[C@H]5CC[C@H]4CC(O)C5)cc3)c2c1 (stereo in doubt; 76)      Condition met
5  O=C(N[C@@H](c1ccccn1)C1CC1)c1ccc2[nH]nc(-c3ccc(N4[C@H]5CC[C@H]4CC(O)C5)cc3)c2c1 (stereo in doubt; 75)      Condition met

----------
# Tested on: MDA-MB-468
# test-details: Cytotoxicity against human MDA-MB-468 cells after 5 days by sulforhodamine B assay
# Assay type: functional
Catalogue of GI50 values
assay-metric: GI50 (nM)

                                   compound  target_of_assay  readout_value
0  O=C(N[C@H](c1ccccn1)C1CC1)c1ccc2[nH]nc(-c3ccc(N4[C@H]5CC[C@H]4CC(O)C5)cc3)c2c1 (stereo in doubt; 86)       MDA-MB-468             90
1  O=C(N[C@H](c1ccccn1)C1CCCC1)c1ccc2[nH]nc(-c3ccc(N4[C@H]5CC[C@H]4CC(O)C5)cc3)c2c1 (stereo in doubt; 76)       MDA-MB-468             20
2  O=C(N[C@@H](c1ccccn1)C1CC1)c1ccc2[nH]nc(-c3ccc(N4[C@H]5CC[C@H]4CC(O)C5)cc3)c2c1 (stereo in doubt; 75)       MDA-MB-468             36

----------
# test-details: Half life in iv dosed dog
# Assay type: ADME, organism-based, Canis lupus familiaris
# cond: in vivo
assay-metric: half-life (h)

>>> df
                                   molecule  readout_value
0  O=C(N[C@@H](c1ccccn1)C1CC1)c1ccc2[nH]nc(-c3ccc(N4[C@H]5CC[C@H]4CC(O)C5)cc3)c2c1 (stereo in doubt; 75)            1.2

----------
Catalogue of pIC50 values
# target-of-assay: Aurora kinase A (Homo sapiens)
# test-details: Inhibition of recombinant AURKA (unknown origin) preincubated for 15 mins prior to ATP addition by FRET-based homogenous assay
pIC50: −log10 of the molar value.
assay-metric: pIC50

>>> df
                                   compound  assay_metric  readout_value
0  CN1CCC(Oc2ccc(-c3n[nH]c4ccc(C(=O)NC(c5ccsc5)C5CCCC5)cc34)cc2)CC1 (racemic)         pIC50           5.70
1  O=C(NCC1(N2CCOCC2)CCCCC1)c1ccc2[nH]nc(-c3ccc(N4CCOCC4)cc3)c2c1         pIC50           5.64
2  O=C(N[C@@H](c1ccccn1)C1CC1)c1ccc2[nH]nc(-c3ccc(N4[C@H]5CC[C@H]4CC(O)C5)cc3)c2c1 (stereo in doubt; 75)         pIC50           5.89
3  CN1CCC(Oc2ccc(-c3n[nH]c4ccc(NC(=O)C(c5ccsc5)C5CCCC5)cc34)cc2)CC1 (racemic)         pIC50           5.64
4  O=C(CC1(N2CCOCC2)CCCCC1)Nc1ccc2[nH]nc(-c3ccc(N4CCOCC4)cc3)c2c1         pIC50           5.68

----------
Catalogue of log10 of GI50 values
# test-details: Cytotoxicity against human OVCAR3 cells after 5 days by sulforhodamine B assay
# Assay type: functional, OVCAR-3
# cond: Homo sapiens, OVCAR-3, 120 h
assay-metric: log10 of GI50 (log10 of the value in nM)

                                   compound  readout_value
0  O=C(N[C@H](c1ncccn1)C1CCCC1)c1ccc2[nH]nc(-c3ccc(N4[C@H]5CC[C@H]4CC(O)C5)cc3)c2c1 (stereo partly specified)           1.30
1  O=C(N[C@@H](c1ccccn1)C1CCCC1)c1ccc2[nH]nc(-c3ccc(N4[C@H]5CC[C@H]4CC(O)C5)cc3)c2c1 (stereo partly specified)           1.95
2  CC(C)C[C@@H](NC(=O)c1ccc2[nH]nc(-c3ccc(N4[C@H]5CC[C@H]4CC(O)C5)cc3)c2c1)c1ccccn1 (stereo partly specified)           1.91
3  O=C(N[C@H](c1ccccn1)C1CC1)c1ccc2[nH]nc(-c3ccc(N4C5CCC4COC5)cc3)c2c1           1.26
4  O=C(N[C@H](c1ccccc1)C1CC1)c1ccc2[nH]nc(-c3ccc(N4[C@H]5CC[C@H]4CC(O)C5)cc3)c2c1 (stereo partly specified)           2.08
5  CC(C)C[C@H](NC(=O)c1ccc2[nH]nc(-c3ccc(N4[C@H]5CCC[C@H]4CC(O)C5)cc3)c2c1)c1ccccn1 (stereo partly specified)           2.86

----------
# test-details: Half life in mouse liver microsomes at 1 uM by LC-MS analysis
# Assay type: ADME
# cond: liver microsomes
half-life at 1 µM less than 30 min is 1 (yes); half-life at 1 µM greater than or equal to 30 min is 0 (no).

                                    compound  classification
 0  CN1CCC(Oc2ccc(-c3n[nH]c4ccc(C(=O)NC(c5ccsc5)C5CCCC5)cc34)cc2)CC1 (racemic)         1 (yes)
 1  O=C(CC1(N2CCOCC2)CCCCC1)Nc1ccc2[nH]nc(-c3ccc(N4CCOCC4)cc3)c2c1         1 (yes)
 2  O=C(NCC1(N2CCOCC2)CCCCC1)c1ccc2[nH]nc(-c3ccc(N4C5CCC4COC5)cc3)c2c1         1 (yes)
 3  O=C(N[C@@H](c1ccccn1)C1CCCC1)c1ccc2[nH]nc(-c3ccc(N4[C@H]5CC[C@H]4CC(O)C5)cc3)c2c1 (stereo not given in full)          0 (no)
 4  CC(C)C[C@@H](NC(=O)c1ccc2[nH]nc(-c3ccc(N4[C@H]5CC[C@H]4CC(O)C5)cc3)c2c1)c1ccccn1 (stereo not given in full)          0 (no)
 5  O=C(N[C@@H](c1ncccn1)C1CCCC1)c1ccc2[nH]nc(-c3ccc(N4[C@H]5CC[C@H]4CC(O)C5)cc3)c2c1 (stereo not given in full)          0 (no)
 6  O=C(N[C@H](c1ccccn1)C1CC1)c1ccc2[nH]nc(-c3ccc(N4C5CCC4COC5)cc3)c2c1          0 (no)
 7  O=C(N[C@@H](c1ccccn1)C1CCCC1)c1ccc2[nH]nc(-c3ccc(N4[C@H]5COC[C@H]4CC(O)C5)cc3)c2c1 (stereo not given in full)          0 (no)
 8  O=C(NCC1(N2CCOCC2)CCCCC1)c1ccc2[nH]nc(-c3ccc(N4CCOCC4)cc3)c2c1         1 (yes)
 9  O=C(N[C@H](c1ccccn1)C1CC1)c1ccc2[nH]nc(-c3ccc(N4[C@H]5CC[C@H]4CC(O)C5)cc3)c2c1 (stereo in doubt; 74)          0 (no)
10  O=C(N[C@@H](c1ccccn1)C1CC1)c1ccc2[nH]nc(-c3ccc(N4C5CCC4COC5)cc3)c2c1          0 (no)
11  CN1CCC(Oc2ccc(-c3n[nH]c4ccc(NC(=O)C(c5ccsc5)C5CCCC5)cc34)cc2)CC1 (racemic)         1 (yes)
12  O=C(N[C@H](c1ccccn1)C1CCCC1)c1ccc2[nH]nc(-c3ccc(N4C5CCCC4COC5)cc3)c2c1          0 (no)
13  CC(C)C[C@H](NC(=O)c1ccc2[nH]nc(-c3ccc(N4[C@H]5CC[C@H]4CC(O)C5)cc3)c2c1)c1ccccn1 (stereo not given in full)          0 (no)
14  O=C(N[C@H](c1ccccc1)C1CC1)c1ccc2[nH]nc(-c3ccc(N4[C@H]5CC[C@H]4CC(O)C5)cc3)c2c1 (stereo not given in full)          0 (no)
15  CC(C)[C@H](NC(=O)c1ccc2[nH]nc(-c3ccc(N4[C@H]5CC[C@H]4CC(O)C5)cc3)c2c1)c1ccccc1Cl (stereo not given in full)          0 (no)
16  O=C(N[C@H](c1ncccn1)C1CCCC1)c1ccc2[nH]nc(-c3ccc(N4[C@H]5CC[C@H]4CC(O)C5)cc3)c2c1 (stereo not given in full)          0 (no)
17  O=C(N[C@H](CC1CC1)c1ccccn1)c1ccc2[nH]nc(-c3ccc(N4[C@H]5CC[C@H]4CC(O)C5)cc3)c2c1 (stereo not given in full)          0 (no)
18  O=C(N[C@H](c1ccccn1)C1CCCC1)c1ccc2[nH]nc(-c3ccc(N4[C@H]5CC[C@H]4CC(O)C5)cc3)c2c1 (stereo in doubt; 76)          0 (no)
19  O=C(N[C@@H](c1ccccn1)C1CC1)c1ccc2[nH]nc(-c3ccc(N4[C@H]5CC[C@H]4CC(O)C5)cc3)c2c1 (stereo in doubt; 75)          0 (no)
